The reported numbers originate from patent US9102648B1.

# PROTOCOL DESCRIPTION: Bi-directional permeability, CACO-2
# Assay type: in vitro ADME
# EXPERIMENTAL CONDITIONS: human, Caco-2, pH 7, Papp, B-to-A Rep. 2
MEASUREMENT TYPE: Papp B→A at 2 h, 10 µM (×10⁻⁶ cm/s)
Respond numerically; units are ×10⁻⁶ cm/s and should not be typed.

# annotated cases, reported Papp B→A at 2 h, 10 µM shown
CCc1ccc(C(=O)NN(C(=O)c2cc(C)cc(C)c2)C(C)(C)C)c(F)c1 ... 25.4
CCC(N(NC(=O)c1cccc(C)c1C)C(=O)c1cc(C)cc(C)c1)C(C)(C)C (stereo not shown) ... 32.5
COc1ccc(C(=O)N(NC(=O)c2ccc3c(c2C)OCCO3)C(C)(C)C)c(OC)n1 ... 27.6

Now take the following molecule into account.
Ask: I have this molecule here, Cc1cc(C)cc(C(=O)N(NC(=O)c2ccc3c(c2C)OCCO3)C(C)(C)C)c1 , and I need its recorded Papp B→A at 2 h, 10 µM.
Reply: 21.2
